procedure-details: Plasma Stability Assay of Example A3, mouse plasma
protocol-conditions: 120 min; 5 μM, 37° C.; % of prodrug compound remaining
Overview of reported Mouse Plasma Prodrug (%) across a group of compounds:

>>> print(df.to_string())
                                   compound  observed_value
0  COc1ccc([C@@]23CCC(OC(=O)c4cccc(N(C)C)c4)=C[C@@H]2N(C)CC3)cc1OC [Compound 307]            0.0%
1  COc1ccc([C@@]23CCC(OC(=O)c4ccc(C#N)cc4)=C[C@@H]2N(C)CC3)cc1OC [Compound 354]              4%
2  COc1ccc([C@@]23CCC(OC(=O)c4ccc(C(F)(F)F)cc4)=C[C@@H]2N(C)CC3)cc1OC [Compound 310]            0.1%

Inquiry: # input compound: COc1ccc([C@@]23CCC(=O)C[C@@H]2N(C)CC3)cc1OC [Compound 001, mesembrine, reference compound] ; wanted: its Mouse Plasma Prodrug (%)
Reply text: >99%

Inquiry: # input compound: C/C=C(\C)C(=O)OC1=C[C@@H]2N(C)CC[C@]2(c2ccc(OC)c(OC)c2)CC1 [Compound 313] ; wanted: its Mouse Plasma Prodrug (%)
Reply text: 0.0%

Inquiry: # input compound: COc1ccc([C@@]23CCC(OC(=O)c4ccc(N(C)C)cc4)=C[C@@H]2N(C)CC3)cc1OC [Compound 355] ; wanted: its Mouse Plasma Prodrug (%)
Reply text: 0.5%

====

protocol-conditions: 0 min, 5 μM
quantity-kind: Human Plasma Compound 001 (%)
Write the value in % as a bare number.

                                   compound  observed_value
0  COc1ccc([C@@]23CCC(OC(=O)c4cccc(C)c4)=C[C@@H]2N(C)CC3)cc1OC [Compound 374]            0.00
1  COc1ccc([C@@]23CCC(OC(=O)c4c(C)cccc4C)=C[C@@H]2N(C)CC3)cc1OC [Compound 372]            0.00

Inquiry: # input compound: COc1ccc([C@@]23CCC(OC(=O)c4ccc(C(C)C)cc4)=C[C@@H]2N(C)CC3)cc1OC [Compound 371] ; wanted: its Human Plasma Compound 001 (%)
Reply text: 0.00

Inquiry: # input compound: COc1ccc([C@@]23CCC(OC(=O)c4cccc(C)c4C)=C[C@@H]2N(C)CC3)cc1OC [Compound 373] ; wanted: its Human Plasma Compound 001 (%)
Reply text: 0

Inquiry: # input compound: COc1ccc([C@@]23CCC(OC(=O)c4ccc(N(C)C)cc4)=C[C@@H]2N(C)CC3)cc1OC [Compound 355] ; wanted: its Human Plasma Compound 001 (%)
Reply text: 0.0

====

Assay type: physicochemical
protocol-conditions: SGF with pepsin, pH 1.5, 37° C., 0.5 mM; time 4 h
quantity-kind: Condition 1 Conversion (%)
Write the value in % as a bare number.

compound	unit-symbol	Condition 1 Conversion (%)
COc1ccc([C@]23CCN(C)[C@H]2CC2(CC3)OC[C@H]([C@@H](O)[C@@H](O)Cn3c4nc(=O)[nH]c(=O)c-4nc4cc(C)c(C)cc43)O2)cc1OC (stereo partly shown) [Compound 174]	%	0
COc1ccc([C@@]23CCC(=NNc4cnccn4)C[C@@H]2N(C)CC3)cc1OC [Compound 365]	%	94.1
COc1ccc([C@@]23CCC(=NOCc4cccnc4)C[C@@H]2N(C)CC3)cc1OC [Compound 209]	%	0
COc1ccc([C@@]23CCN(C)[C@@H]2CC2(CC3)SCCS2)cc1OC [Compound 046]	%	0
COc1ccc([C@@]23CC/C(=N\NC(=O)Nc4ccc(N5CCN(C)CC5)cc4)C[C@@H]2N(C)CC3)cc1OC [Compound 257]	%	100

Inquiry: # input compound: COc1ccc([C@@]23CCC(=NNCc4ccccn4)C[C@@H]2N(C)CC3)cc1OC [Compound 369] ; wanted: its Condition 1 Conversion (%)
Reply text: 100

Inquiry: # input compound: COc1ccc([C@@]23CCC(=NNc4ccc(F)cc4)C[C@@H]2N(C)CC3)cc1OC [Compound 361] ; wanted: its Condition 1 Conversion (%)
Reply text: 100
